Test system: ATP;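 further: ATP exposure 15 min at 22 °C before imaging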
Test: switch fluorescence ratio, 500 uM ATP over buffer (Cy3 cluster intensity, sum of 5 cycles each) (fold (ratio)); higher = stronger signal-on switching upon ATP binding; sequences stand for … in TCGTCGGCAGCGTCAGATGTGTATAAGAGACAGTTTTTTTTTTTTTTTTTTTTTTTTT…TC
Conditions: aptamer strand: ATP DNA aptamer (quencher-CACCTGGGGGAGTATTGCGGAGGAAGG + anchor), 100 nM annealed; ATP concentration: 500 uM
observable: switch fluorescence ratio
Answers are plain numbers.

Please review the entries below; each comes with its answer.
[[record]]
sequence_chain = "GAGTTAGTAA"
system_under_test = "ATP"
assay_result = 0.999

[[record]]
sequence_chain = "AGGGGTGTGT"
system_under_test = "ATP"
assay_result = 1.01

[[record]]
sequence_chain = "GTGTGGCGGG"
system_under_test = "ATP"
assay_result = 0.996

[[record]]
sequence_chain = "GCTAGGTTTG"
system_under_test = "ATP"
assay_result = 0.998

[[record]]
sequence_chain = "CTTATAGACT"
system_under_test = "ATP"
assay_result = 1.01


Look at each sequence and report its switch fluorescence ratio.
1. GGTGTTGCGG
2. AATTTCGGGT
3. TCATTCGGAG
4. AAGGTTGGGT

Reply text:
1: 0.98; 2: 0.988; 3: 1.02; 4: 0.984

The following sequences each have a reported value; give each one's switch fluorescence ratio.
1. CAGGATCTAG
2. ATCTGAAGGT
3. ATGTTATTGT
4. TGGGGGGGTT
5. TGCTCCTGAT
6. GGGCCTTTTC
7. TAGAGTCCAT

Reply text:
[1, 0.975, 0.98, 1, 1.02, 1, 1.02]

Record GCCGGAGTGG , field switch fluorescence ratio: 0.982

###

Test system: ATP;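 further: ATP exposure 15 min at 22 °C before imaging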
Assay: switch fluorescence ratio, 500 uM ATP over buffer (Cy3 cluster intensity, sum of 5 cycles each) (fold (ratio)); higher = stronger signal-on switching upon ATP binding; sequences stand for … in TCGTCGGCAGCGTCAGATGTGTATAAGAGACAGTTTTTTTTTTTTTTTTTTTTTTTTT…TC
Details: aptamer strand: ATP DNA aptamer (quencher-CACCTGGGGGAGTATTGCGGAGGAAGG + anchor), 100 nM annealed; ATP concentration: 500 uM
Class true: switch fluorescence ratio at least 1. Class false: switch fluorescence ratio below 1.

[[record]]
sequence_chain = "GAGTGGGCCT"
system_under_test = "ATP"
group_label = "false"

[[record]]
sequence_chain = "AATTACGATT"
system_under_test = "ATP"
group_label = "true"


Next, consider the following sequence.
Inquiry: # check: switch fluorescence ratio of TTTTCCGCGG is greater than or equal to 1
Reply text: true

###

System: ATP;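 further: ATP exposure 15 min at 22 °C before imaging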
Experiment: switch fluorescence ratio, 500 uM ATP over buffer (Cy3 cluster intensity, sum of 5 cycles each) (fold (ratio)); higher = stronger signal-on switching upon ATP binding; sequences stand for … in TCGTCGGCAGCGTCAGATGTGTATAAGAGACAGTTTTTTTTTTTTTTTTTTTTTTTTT…TC
Details: aptamer strand: ATP DNA aptamer (quencher-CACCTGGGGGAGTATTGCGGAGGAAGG + anchor), 100 nM annealed; ATP concentration: 500 uM
observable: switch fluorescence ratio

Here is how some sequences turned out for switch fluorescence ratio.
[[record]]
sequence_chain = "AACGTTGGTA"
system_under_test = "ATP"
assay_result = 0.989

[[record]]
sequence_chain = "TGGGGTTAGA"
system_under_test = "ATP"
assay_result = 0.978

[[record]]
sequence_chain = "TTATCTCTGT"
system_under_test = "ATP"
assay_result = 0.999

[[record]]
sequence_chain = "GTTTTTTGTG"
system_under_test = "ATP"
assay_result = 0.986

[[record]]
sequence_chain = "TCGTGCACGA"
system_under_test = "ATP"
assay_result = 1.02


Working through the 2 sequences below one at a time, give switch fluorescence ratio for each.
1. ACTAATTAGC
2. TATAGTATTG

Reply text:
[1.01, 0.986]
